# subjectOfTest: Gal3S6S(b1-4)GlcNAc
# testDetails: glycan array binding signal (z-score within array); higher = stronger binding
# experimentalConditions: glycan notation: IUPAC condensed, linker removed
This excerpt belongs to a sample that is enriched for the strongest signals.
For each entry below, report its glycan array binding signal (z-score) value.
Enter a number only.

Problem: What glycan array binding signal (z-score) value was documented for this binder, MAL (Maackia amurensis) (protein) SDELSFTINNFMPNQGDLLFQGVATVSPTGVLQLTSEENGQPLEYSVGRVLYTAPVRIWDSTTGAVASFSTSFTFVVKAARGASDGLAFFLAPPDSQIPSGSVSKYLGLFNNSNSDSSNQIVAVEFDTYFGHSYDPWDPNYRHIGIDVNGIESIKTVQWDWINGGVAFATITYLAPNKTLIASLVYPSNQTSFIVAASVDLKEILPEWVRVGFSAATGAPKAVETHDVRSWSFTSTLEANSPADVDN ?
Result: 0.345

Problem: Entry CREG (Mus musculus), O88668 (protein) MAARAPELARSLLAALLAPALVALLVSPASGRGGRDHGDWDVDRRLPPLPPREDGPRVARFVTHVSDWGSLATISTIKEVRGWPFADIISISDGPPGEGTGEPYMYLSPLQQAVSDLQENPEATLTMSLAQTVYCRNHGFDPQSPLCVHIMMSGTVTKVNKTEEDYARDSLFVRHPEMKHWPSSHNWFFAKLKISRIWVLDYFGGPKVVTPEEYFNVTLQ has what glycan array binding signal (z-score)?
Result: 1.52

Problem: Value lookup for glycan array binding signal (z-score); key = CTMLA2 (Anopheles gambiae), Q7Q7F8 (protein) MNLMITILIAVITVVRGDLSVPKTVDDILQQNPCLCPCKPFEEKEYFIPISRTSDWFGAVAYCHSVGMELAEVLNEDEARAMGEVIAEEESDSDDEFYWIGANDLGVQGTYRWALAGRPVLYSQWAAGEPNHARGENGQQPAERCVAVAMDKYEWNDFQCTQQKPFICQQFRKH
Result: 1.36

Problem: // lookup glycan array binding signal (z-score) for CrataBL (Crataeva tapia), C0HJA4 (protein) AILTGVPYYILPSTSRAGFSPDNLRKNTSQLSCPLDLITQLRFPRRIGVPVIFTPQNSSLKVVPLSHNLNIHTCSDLWFCPESKIWTVKSSLTHGGSVVTTGGTFRSLGSWFRIERHGDSYKLVHCPRGSTPCRDVGIETVGGGGRRYLAPRDRPLAVRFTRASG
Result: 3.14
